System name: EGFR 19del (Homo sapiens, UniProt P00533, DEL746-750)
Sequence (P00533 with tags, fused parts or gaps DEL746-750): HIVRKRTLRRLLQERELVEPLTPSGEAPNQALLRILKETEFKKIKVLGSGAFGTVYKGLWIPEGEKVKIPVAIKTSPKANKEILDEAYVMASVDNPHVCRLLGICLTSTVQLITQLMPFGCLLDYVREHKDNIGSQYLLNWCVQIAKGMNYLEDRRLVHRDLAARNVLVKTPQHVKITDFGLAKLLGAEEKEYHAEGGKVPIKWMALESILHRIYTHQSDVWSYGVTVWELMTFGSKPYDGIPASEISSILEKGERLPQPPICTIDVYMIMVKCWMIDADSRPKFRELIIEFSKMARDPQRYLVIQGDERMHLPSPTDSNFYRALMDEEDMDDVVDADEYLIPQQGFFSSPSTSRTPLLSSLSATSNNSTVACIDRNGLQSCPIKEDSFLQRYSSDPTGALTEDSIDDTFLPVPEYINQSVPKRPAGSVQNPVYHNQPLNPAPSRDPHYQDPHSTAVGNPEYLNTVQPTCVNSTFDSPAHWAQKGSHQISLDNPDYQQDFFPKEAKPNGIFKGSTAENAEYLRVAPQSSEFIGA
Run description: Fluorescence turn-on response / titration of HX103 with recombinant EGFR
Cond: HX103 5 µM, EGFR 0 to 6 µM in PBS, one-site specific binding model; read-out: apparent binding affinity (Kd)
Quantity measured: pKd
Entry type: numeric. Quantity: pKd, the -log10 of concentration in molar units.

## Task # lookup: pKd of COc1cc2c(Nc3ccc(F)c(Cl)c3)ncnc2cc1OCCCNc1ccc(S(=O)(=O)N(C)C)c2nonc12
## Result 5.96

###

Run description: MTT cytotoxicity assay
Format: cell-based
Cond: human, A549 cells, EGFR wild-type, n=3
Quantity measured: IC50 at 48 h (µM)
# unit: µM | format: bare number

## Task # lookup: IC50 at 48 h of COc1cc2c(Nc3ccc(F)c(Cl)c3)ncnc2cc1OCCCNc1ccc(S(=O)(=O)N(C)C)c2nonc12
## Result 18

###

System name: EGFR wild-type (Homo sapiens, UniProt P00533)
Construct: Recombinant human EGFR (amino acids 668–1210, #PR7295B)
Sequence (P00533 668-1210): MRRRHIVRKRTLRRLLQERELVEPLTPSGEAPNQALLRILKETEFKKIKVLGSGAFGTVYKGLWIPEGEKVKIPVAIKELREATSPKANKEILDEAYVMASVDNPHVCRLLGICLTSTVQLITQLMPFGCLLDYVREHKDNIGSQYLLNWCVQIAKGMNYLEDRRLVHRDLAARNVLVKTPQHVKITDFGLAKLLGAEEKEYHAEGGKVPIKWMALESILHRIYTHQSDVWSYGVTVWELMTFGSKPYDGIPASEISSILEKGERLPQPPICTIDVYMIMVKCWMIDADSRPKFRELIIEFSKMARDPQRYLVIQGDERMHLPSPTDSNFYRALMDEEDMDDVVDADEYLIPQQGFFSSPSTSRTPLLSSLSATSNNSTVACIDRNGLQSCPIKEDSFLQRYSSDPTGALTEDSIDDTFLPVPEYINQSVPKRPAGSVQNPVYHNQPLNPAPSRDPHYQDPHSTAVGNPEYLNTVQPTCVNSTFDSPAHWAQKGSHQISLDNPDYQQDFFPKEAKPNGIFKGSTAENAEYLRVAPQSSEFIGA
Run description: Kinase inhibition assay (fluorescent mobility-shift assay)
Cond: n = 3
Quantity measured: pIC50
Entry type: numeric. Quantity: pIC50, the -log10 of concentration in molar units.

## Task # lookup: pIC50 of COc1cc2c(Nc3ccc(F)c(Cl)c3)ncnc2cc1OCCCNc1ccc(S(=O)(=O)N(C)C)c2nonc12 [HX103]
## Result 8.40

###

System name: EGFR T790M (Homo sapiens, UniProt P00533, T790M)
Construct: EGFR T790M (amino acids 668–1210, #PR8052A)
Sequence (P00533 668-1210 T790M): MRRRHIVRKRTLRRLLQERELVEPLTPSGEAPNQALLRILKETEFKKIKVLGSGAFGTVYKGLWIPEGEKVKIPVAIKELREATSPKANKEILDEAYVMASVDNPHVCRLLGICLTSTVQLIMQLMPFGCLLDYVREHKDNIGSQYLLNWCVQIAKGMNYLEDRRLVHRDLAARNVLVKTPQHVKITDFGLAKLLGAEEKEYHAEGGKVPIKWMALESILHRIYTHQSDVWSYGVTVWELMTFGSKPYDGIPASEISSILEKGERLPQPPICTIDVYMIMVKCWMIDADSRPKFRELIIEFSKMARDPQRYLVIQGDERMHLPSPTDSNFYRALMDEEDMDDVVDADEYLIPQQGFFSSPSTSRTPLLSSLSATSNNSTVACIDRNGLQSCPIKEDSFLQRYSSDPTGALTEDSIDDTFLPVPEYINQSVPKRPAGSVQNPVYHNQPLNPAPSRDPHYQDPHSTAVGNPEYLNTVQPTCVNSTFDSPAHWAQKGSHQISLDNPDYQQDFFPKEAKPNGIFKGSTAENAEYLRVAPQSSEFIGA
Run description: Kinase inhibition assay (fluorescent mobility-shift assay)
Cond: n = 3
Quantity measured: pIC50
Entry type: numeric. Quantity: pIC50, the -log10 of concentration in molar units.

## Task Requested read-out pIC50, target or system EGFR T790M (Homo sapiens, UniProt P00533, T790M), entry COc1cc2c(Nc3ccc(F)c(Cl)c3)ncnc2cc1OCCCNc1ccc(S(=O)(=O)N(C)C)c2nonc12 [HX103]
## Result 6.01

###

System: PC-9 cells
Run description: MTT cytotoxicity assay
Assay type: cell-based
Cond: Homo sapiens, EGFR 19del, 48 h, n=3
Quantity measured: IC50 (nM)
# unit: nM | format: bare number

## Task # lookup: IC50 of COc1cc2c(Nc3ccc(F)c(Cl)c3)ncnc2cc1OCCCNc1ccc(S(=O)(=O)N(C)C)c2nonc12
## Result 1800

###

System name: EGFR L858R (Homo sapiens, UniProt P00533, L858R)
Construct: EGFR L858R (amino acids 668–1210, #PR7447A)
Sequence (P00533 668-1210 L858R): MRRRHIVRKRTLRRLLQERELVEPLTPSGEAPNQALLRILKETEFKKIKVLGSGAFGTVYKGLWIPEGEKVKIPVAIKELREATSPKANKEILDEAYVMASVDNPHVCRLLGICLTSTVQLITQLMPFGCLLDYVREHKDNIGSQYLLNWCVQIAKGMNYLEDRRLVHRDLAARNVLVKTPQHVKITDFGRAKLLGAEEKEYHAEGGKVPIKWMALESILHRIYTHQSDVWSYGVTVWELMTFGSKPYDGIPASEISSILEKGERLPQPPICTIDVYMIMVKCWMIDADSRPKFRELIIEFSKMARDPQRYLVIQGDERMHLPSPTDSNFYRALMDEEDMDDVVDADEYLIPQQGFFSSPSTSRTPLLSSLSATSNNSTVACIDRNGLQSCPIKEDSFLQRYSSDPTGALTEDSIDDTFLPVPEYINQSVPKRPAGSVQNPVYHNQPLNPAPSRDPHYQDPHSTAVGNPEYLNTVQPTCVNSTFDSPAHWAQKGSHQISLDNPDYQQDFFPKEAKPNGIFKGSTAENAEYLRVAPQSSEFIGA
Run description: Kinase inhibition assay (fluorescent mobility-shift assay)
Cond: n = 3
Quantity measured: pIC50
Entry type: numeric. Quantity: pIC50, the -log10 of concentration in molar units.

## Task # lookup: pIC50 of COc1cc2c(Nc3ccc(F)c(Cl)c3)ncnc2cc1OCCCNc1ccc(S(=O)(=O)N(C)C)c2nonc12
## Result 8.82

###

System name: EGFR L858R (Homo sapiens, UniProt P00533, L858R)
Construct: EGFR L858R (amino acids 668–1210, #PR7447A)
Run description: Fluorescence turn-on response / titration of HX103 with recombinant EGFR;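 further: fluorescence of the probe measured with recombinant EGFR L858R in PBS carrying 0.1% DMSO, excitation at 440 nm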
Cond: HX103 5 µM, EGFR 0 to 6 µM in PBS, one-site specific binding model; read-out: apparent binding affinity (Kd)
Quantity measured: pKd
Entry type: numeric. Quantity: pKd, the -log10 of concentration in molar units.

## Task # lookup: pKd of COc1cc2c(Nc3ccc(F)c(Cl)c3)ncnc2cc1OCCCNc1ccc(S(=O)(=O)N(C)C)c2nonc12 [HX103]
## Result 6.10
